# system name: BACE-2 (Homo sapiens)
# Construct: Recombinant BACE-2 (extracellular domain, expressed in baculovirus and purified using standard methods)
# Sequence (Q9Y5Z0 63-473 limits assumed): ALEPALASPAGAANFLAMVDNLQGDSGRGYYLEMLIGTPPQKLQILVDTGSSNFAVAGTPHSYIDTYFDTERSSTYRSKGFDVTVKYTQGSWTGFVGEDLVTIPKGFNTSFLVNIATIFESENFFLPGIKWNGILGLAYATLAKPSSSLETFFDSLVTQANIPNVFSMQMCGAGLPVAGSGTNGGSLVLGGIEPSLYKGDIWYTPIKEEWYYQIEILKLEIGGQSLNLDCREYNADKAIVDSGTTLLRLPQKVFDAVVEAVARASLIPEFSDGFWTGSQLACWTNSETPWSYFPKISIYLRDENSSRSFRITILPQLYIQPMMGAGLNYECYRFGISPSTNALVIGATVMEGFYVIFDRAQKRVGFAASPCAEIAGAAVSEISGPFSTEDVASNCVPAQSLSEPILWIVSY
# protocol text: assay for inhibition of BACE-2
Counter-ions that a name gives are not always drawn.

{"columns": ["compound", "quantity unit", "IC50"],
 "data": [
  ["[2H]C([2H])([2H])Oc1cnc(C(=O)Nc2cc(F)c(F)c([C@]3(C(F)F)COCC(N)=N3)c2)c(Cl)c1", "nM", 73],
  ["N#Cc1cnc(C(=O)Nc2ccc(F)c([C@]3(C(F)F)COCC(N)=N3)c2)c(N)c1", "nM", 27],
  ["Cl.[2H]c1nc(C(=O)Nc2ccc(F)c([C@]3(C(F)F)COCC(N)=N3)c2)c(C([2H])([2H])[2H])c([2H])c1Br", "nM", 9],
  ["NC1=NC(CF)(c2cc(Cl)cc(NC(=O)c3ccc(Br)cn3)c2)COC1 (stereo not shown)", "nM", 1020],
  ["NC1=NC(c2cccc(NC(=O)c3cnc(C(F)F)cn3)c2)(C(F)F)COC1 (stereo not shown)", "nM", 3550],
  ["NC1=N[C@@](c2cc(NC(=O)c3ccc(OCF)cn3)ccc2F)(C(F)F)COC1", "nM", 106],
  ["CC#CCOc1cnc(C(=O)Nc2ccc(F)c([C@]3(C(F)F)COCC(N)=N3)c2)c(C)n1 [Example 182, hydrochloride]", "nM", 171],
  ["C#CCOc1cnc(C(=O)Nc2ccc(F)c([C@]3(C(F)F)COCC(N)=N3)c2)c(N)n1", "nM", 125],
  ["COc1cc(Br)cnc1C(=O)Nc1cc(C2(C(F)F)COCC(N)=N2)c(F)cc1F (stereo not shown)", "nM", 5880],
  ["Cc1nc(C(=O)Nc2cccc(C3(C)COCC(N)=N3)c2)c(C)o1 (stereo not shown) [Example 10, hydrochloride]", "nM", 289],
  ["CCN1CC(C)(c2cc(NC(=O)c3ccc(C#N)cn3)ccc2F)N=C(N)C1=O (stereo not shown) [Example 199, hydrochloride]", "nM", 132],
  ["C[C@@]1(c2cccc(NC(=O)c3ccc(Br)cn3)n2)COCC(N)=N1", "nM", 256],
  ["NC1=N[C@@](c2cc(NC(=O)c3ccc(Cl)cn3)ccc2F)(C(F)F)COC1", "nM", 18],
  ["Cc1cc(C(=O)Nc2ccc(F)c([C@]3(C(F)F)COCC(N)=N3)c2)n[nH]1", "nM", 522],
  ["Cn1cc(N2CC(C)(c3cc(NC(=O)c4ccc(Br)cn4)ccc3F)N=C(N)C2=O)cn1 (stereo not shown) [Example 197, hydrochloride]", "nM", 18],
  ["Cn1cc([N+](=O)[O-])c(C(=O)Nc2ccc(F)c([C@]3(C(F)F)COCC(N)=N3)c2)n1", "nM", 376],
  ["Cc1nc(C(=O)Nc2ccc(F)c([C@]3(C(F)F)COCC(N)=N3)c2)co1", "nM", 35],
  ["N#Cc1ccc(C(=O)Nc2ccc(F)c([C@]3(C(F)F)COCC(N)=N3)c2)nc1 [Example 112, hydrochloride]", "nM", 97],
  ["Cc1cc(F)cnc1C(=O)Nc1ccc(F)c([C@]2(C)CO[C@@](C)(C(F)(F)F)C(N)=N2)c1", "nM", 3],
  ["Cc1cc(Br)cnc1C(=O)Nc1cccc(C2(C(F)F)COCC(N)=N2)c1 (stereo not shown)", "nM", 58],
  ["Cc1cc(C#N)cnc1C(=O)Nc1cccc(C2(CF)COCC(N)=N2)n1 (stereo not shown)", "nM", 1020],
  ["NC1=N[C@@](c2cc(NC(=O)c3ncc(=O)[nH]c3N)ccc2F)(C(F)F)CNC1", "nM", 757],
  ["Cc1cnc(C(=O)Nc2ccc(F)c([C@]3(C(F)F)COCC(N)=N3)c2)s1", "nM", 476],
  ["COc1ccc(C(=O)Nc2cccc([C@]3(C)COCC(N)=N3)c2)nc1 [Example 30, hydrochloride]", "nM", 367],
  ["NC1=NC(CF)(c2cc(NC(=O)c3ncc(Cl)cc3Cl)ccc2F)COC1 (stereo not shown)", "nM", 12],
  ["Cc1cc(C#N)cnc1C(=O)Nc1ccc(F)c(C2(C)COC(CF)(CF)C(N)=N2)c1 (racemic)", "nM", 41],
  ["C[C@@]1(c2cc(NC(=O)c3ncc(C#N)cn3)ccc2F)CO[C@@](C)(C(F)(F)F)C(N)=N1", "nM", 4],
  ["NC1=N[C@@](c2cc(NC(=O)c3ncc(Cl)cc3Cl)ccc2F)(C(F)F)COC1", "nM", 7],
  ["NC1=N[C@@](c2cc(NC(=O)c3ccc(OC(F)F)cn3)ccc2F)(C(F)F)COC1", "nM", 458],
  ["NC1=N[C@](CF)(c2cc(NC(=O)c3ccc(Cl)cn3)ccc2F)COC1 [Example 85, hydrochloride]", "nM", 8],
  ["[2H]C([2H])([2H])OCc1cc(C#N)cnc1C(=O)Nc1ccc(F)c([C@]2(C)CO[C@@](C)(C(F)(F)F)C(N)=N2)c1", "nM", 13]
]}
